Test: glycosylation-insensitive luciferase reporter activation – D54 LucT cells, dry powder, set 2, counter-screen for N-linked glycosylation inhibitor project, dose response (AID 1053120)
Conditions: D54 LucT luciferase reporter (no NLG), luminescence, 24 h; at 19.5 µM (top of the series)
Known luciferase activation of a selection of compounds
measure: luciferase activation (%)

{"item.smiles": "CCOC(=O)COc1cccc2c(=O)n(CC(=O)NCc3ccccc3)ccc12", "measure": "luciferase activation", "unit.symbol": "%", "value.measured": 0}
{"item.smiles": "Cc1ccc2cc(CN(CCCN(C)C)C(=O)NCc3ccccc3)c(=O)[nH]c2c1C", "measure": "luciferase activation", "unit.symbol": "%", "value.measured": 50}
{"item.smiles": "CCC1=Nc2cc(C(=O)NCCCOC)ccc2Sc2ccccc21", "measure": "luciferase activation", "unit.symbol": "%", "value.measured": -33.3}
{"item.smiles": "CC(=O)c1ccc(Oc2cc(C)nc(-n3nc(C)cc3C)n2)cc1", "measure": "luciferase activation", "unit.symbol": "%", "value.measured": 0}
{"item.smiles": "CCN(CC)CCOc1ccc2c(c1)C(=NNC(=O)c1ccccn1)c1cc(OCCN(CC)CC)ccc1-2", "measure": "luciferase activation", "unit.symbol": "%", "value.measured": -33.3}
{"item.smiles": "Cc1cnc(NC(=O)c2cc(S(=O)(=O)N3CCCCC3)ccc2N2CCCC2)s1", "measure": "luciferase activation", "unit.symbol": "%", "value.measured": 50}
{"item.smiles": "Cc1ccc2cc(CN(CCCN(C)C)C(=O)Nc3ccccc3)c(=O)[nH]c2c1C", "measure": "luciferase activation", "unit.symbol": "%", "value.measured": 0}
{"item.smiles": "Cc1ccc(C(=O)c2cc([N+](=O)[O-])ccc2N2CCOCC2)cc1C", "measure": "luciferase activation", "unit.symbol": "%", "value.measured": 66.7}
{"item.smiles": "Cc1cnc(NC(=O)c2cc(S(=O)(=O)N(C)C)ccc2N2CCCC2)s1", "measure": "luciferase activation", "unit.symbol": "%", "value.measured": 0}
{"item.smiles": "O=C(Cc1ccccc1)c1nnc(-c2ccccc2)o1", "measure": "luciferase activation", "unit.symbol": "%", "value.measured": 33.3}

###

Known AC40 of a selection of compounds
Tested on: D54 LucT luciferase reporter (no NLG), luminescence, 24 h
Test: glycosylation-insensitive luciferase reporter activation – D54 LucT cells, dry powder, set 2, counter-screen for N-linked glycosylation inhibitor project, dose response (AID 1053120)

{"compound": "CCCNS(=O)(=O)c1cccc(C(=O)OCc2cc(=O)oc3cc(OC)ccc23)c1", "tested.on": "D54 LucT luciferase reporter (no NLG), luminescence, 24 h", "AC40": "2.14 µM"}
{"compound": "COC(=O)c1cn(C(=O)c2ccc(OC)cc2)c2ccccc12", "tested.on": "D54 LucT luciferase reporter (no NLG), luminescence, 24 h", "AC40": "15.4 µM"}
{"compound": "COc1ccccc1-c1nnc(SCc2ccccc2)o1", "tested.on": "D54 LucT luciferase reporter (no NLG), luminescence, 24 h", "AC40": "0.632 µM"}
{"compound": "CCOC(=O)c1ccc(Oc2cc(C)nc(SC)n2)cc1", "tested.on": "D54 LucT luciferase reporter (no NLG), luminescence, 24 h", "AC40": "3.39 µM"}
{"compound": "O=C(N/N=C/c1ccc(Cl)cc1)c1sccc1OCc1ccc(F)cc1", "tested.on": "D54 LucT luciferase reporter (no NLG), luminescence, 24 h", "AC40": "1.6 µM"}
{"compound": "COc1cc(-c2nnc(SCC3(c4ccc(Br)cc4)OCCO3)o2)cc(OC)c1OC", "tested.on": "D54 LucT luciferase reporter (no NLG), luminescence, 24 h", "AC40": "0.93 µM"}
{"compound": "COc1ccccc1CSc1nnc(-c2ccccc2)o1", "tested.on": "D54 LucT luciferase reporter (no NLG), luminescence, 24 h", "AC40": "0.845 µM"}
{"compound": "COc1ccc(-c2nnc(SCc3ccccc3)o2)cc1", "tested.on": "D54 LucT luciferase reporter (no NLG), luminescence, 24 h", "AC40": "5.12 µM"}
{"compound": "Cc1ccc(/C=N/NC(=O)C2COc3ccccc3O2)s1 (stereo not given)", "tested.on": "D54 LucT luciferase reporter (no NLG), luminescence, 24 h", "AC40": "15.3 µM"}
{"compound": "Nc1nc(=S)c2ncn([C@@H]3O[C@H](CO)[C@@H](O)[C@H]3O)c2[nH]1", "tested.on": "D54 LucT luciferase reporter (no NLG), luminescence, 24 h", "AC40": "5.19 µM"}
